tested on: Candida parapsilosis; test: Antifungal activity against Candida parapsilosis ATCC 22019 assessed as reduction in fungal cell growth incubated for 48 hrs by broth microdilution method; format: functional; conditions: Lodderomyces parapsilosis, ATCC 22019, 48 h
Below is a list of entries, each paired with its recorded MIC value.
valueKind: MIC

# compound, valueKind, reportedValue
data = [
    ("OC(Cn1cncn1)(Cn1nnnc1CCN1CCN(c2ccc(F)cc2)CC1)c1ccc(F)cc1F (stereo unspecified)", "MIC", "0.5 to 16 µg/mL"),
    ("CC(n1nnnc1CCN1CCN(c2ccc([N+](=O)[O-])cc2)CC1)C(O)(Cn1cncn1)c1ccc(F)cc1F (stereo unspecified)", "MIC", "0.5 to 16 µg/mL"),
    ("CCC(C)n1ncn(-c2ccc(N3CCN(c4ccc(OCC5COC(Cn6cncn6)(c6ccc(Cl)cc6Cl)O5)cc4)CC3)cc2)c1=O (stereo unspecified)", "MIC", "0.007 to 0.5 µg/mL"),
    ("OC(Cn1cncn1)(Cn1nnc(CCN2CCN(c3ccc(F)cc3)CC2)n1)c1ccc(F)cc1F (stereo unspecified)", "MIC", "1 to 16 µg/mL"),
    ("CC(n1nnnc1CCN1CCN(c2cccc(Cl)c2)CC1)C(O)(Cn1cncn1)c1ccc(F)cc1F (stereo unspecified)", "MIC", "0.5 to 16 µg/mL"),
    ("OC(Cn1cncn1)(Cn1nnc(CCN2CCN(c3cccc(Cl)c3)CC2)n1)c1ccc(F)cc1F (stereo unspecified)", "MIC", "1 to 16 µg/mL"),
]
